A compilation of IC50 values for Human KLK1 (Homo sapiens (Human)) from the published literature.

For orientation, consider the following solved cases.
>  <MOLECULE>
Cc1cc(Cl)cc(OCCNC(=O)c2cn(Cc3ccc(Cn4ccccc4=O)cc3)nc2N)c1

>  <TESTED ON>
Human KLK1 (Homo sapiens (Human))

>  <IC50>
> 40 µM

$$$$
>  <MOLECULE>
Nc1nn(Cc2ccc(CN3CCOCC3=O)cc2)cc1C(=O)NCCOc1cccc(Cl)c1

>  <TESTED ON>
Human KLK1 (Homo sapiens (Human))

>  <IC50>
> 40 µM

$$$$
>  <MOLECULE>
CN(CC(=O)N[C@@H](Cc1ccc(F)c(F)c1)C(=O)NCc1ccc(N)nc1)c1ccccc1

>  <TESTED ON>
Human KLK1 (Homo sapiens (Human))

>  <IC50>
0.09 µM

$$$$
>  <MOLECULE>
CN(CC(=O)O)c1cc(Cn2cc(C(=O)NCCOc3cccc(Cl)c3)c(N)n2)ccn1

>  <TESTED ON>
Human KLK1 (Homo sapiens (Human))

>  <IC50>
> 40 µM

$$$$
>  <MOLECULE>
CCC(C)[C@@H](N)C(=O)N[C@@H](Cc1ccc2ccccc2c1)C(=O)NCc1ccc(N)nc1 (some centres unmarked)

>  <TESTED ON>
Human KLK1 (Homo sapiens (Human))

>  <IC50>
0.0033 µM

$$$$
>  <MOLECULE>
Cc1cc(C(=O)NCc2ccc(CN)cc2)c(C)n1Cc1cccc(-c2ccccc2)n1

>  <TESTED ON>
Human KLK1 (Homo sapiens (Human))

>  <IC50>
> 10 µM

$$$$
>  <MOLECULE>
Nc1nccc2cc(CNC(=O)c3cn(Cc4cnc(N5CCCC5)c(Cl)c4)nc3C3CC3)ccc12

>  <TESTED ON>
Human KLK1 (Homo sapiens (Human))

>  <IC50>
3.01 µM

$$$$

# next molecule below
Prompt: Give its IC50 value. Item: COCc1nn(Cc2ccc3c(c2)CCN(C)C3)cc1C(=O)NCc1c(-n2cnc(C(F)(F)F)n2)ccc(OC)c1F
Completion: > 40 µM

* * *

Here, molecules appear alongside IC50 reported for UniProtKB P06870 in the literature.

Please review the entries below; each comes with its answer.
>  <MOL SMILES>
Cc1cnn(Cc2ccc(Cn3cnc(C(=O)NCc4c(C)cc(CN)cc4C)c3)cc2)c1

>  <TESTED ON>
UniProtKB P06870

>  <MEASURED PROPERTY>
IC50

>  <MEASUREMENT>
> 10 µM

$$$$
>  <MOL SMILES>
COCc1nn(Cc2ccc3c(c2)CN(C)CC3)cc1C(=O)NCc1c(-n2nc(C)nc2C)ccc(OC)c1F

>  <TESTED ON>
UniProtKB P06870

>  <MEASURED PROPERTY>
IC50

>  <MEASUREMENT>
> 40 µM

$$$$
>  <MOL SMILES>
NC1(c2ccc(CNC(=O)c3cnn(Cc4ccc(Cn5ccccc5=O)cc4)c3)cc2)CC1

>  <TESTED ON>
UniProtKB P06870

>  <MEASURED PROPERTY>
IC50

>  <MEASUREMENT>
> 10 µM

$$$$

# context switch: different molecule, same IC50
Prompt: Sample Nc1nccc2cc(CNC(=O)c3cncc(Cc4ccnc(N5CCOCC5)c4)c3)ccc12 — what was its IC50?
Completion: 8.54 µM
